- Protocol description: Pharmacokinetics of SAR405838 (whole-blood concentrations) in combination
- Assay type: in vivo, human
- Assay setup: human, whole blood, oral, DL2a SAR405838 200 mg QD + pimasertib 60 mg QD; C2D1; read-out: SAR405838 tmax, median (range)
Metric name: Tmax (h)
Note: unit h is implicit; provide only the numeric part.

Query: Please look up its Tmax: CC(C)(C)C[C@@H]1N[C@@H](C(=O)N[C@H]2CC[C@H](O)CC2)[C@H](c2cccc(Cl)c2F)[C@]12C(=O)Nc1cc(Cl)ccc12 [SAR405838]
Result: 2.8

* * *

- Protocol description: Pharmacokinetics of SAR405838 (whole-blood concentrations) in combination
- Assay type: in vivo, human
- Assay setup: human, whole blood, oral, DL2a SAR405838 200 mg QD + pimasertib 60 mg QD; C2D1; read-out: SAR405838 t1/2 (converted)
- Source text: Blood samples were collected on Days 1 (for pimasertib only), 2, 3, 8 and 15 of Cycle 1, on Days 1 and 2 of Cycle 2, and on Day 1 of Cycles 3 and 4, to determine the whole-blood and plasma concentrations of SAR405838 and pimasertib, respectively.
Metric name: half-life (h)
Quick reminder: number only, in h, skip the unit.

Query: Please report the recorded half-life for CC(C)(C)C[C@@H]1N[C@@H](C(=O)N[C@H]2CC[C@H](O)CC2)[C@H](c2cccc(Cl)c2F)[C@]12C(=O)Nc1cc(Cl)ccc12 .
Result: 10

src = paper PMC6354023
